FYI, the data here is from patent US5571518A.

Test: Signs of cytotoxicity in / tolerance by keratinocytes
Format: cell-based
Conditions: human, 24 hours exposure, read-out: concentration at which cells showed signs of cytotoxicity
Item-by-item account of MCC at 24 h
test.readout: MCC at 24 h

[
  {
    "compound": "CCOC(=O)CC(O)(CC(=O)OCC)C(=O)OCC [TEC, triethylcitrate]",
    "test.readout": "MCC at 24 h",
    "test.result": "≥ 1 mM"
  },
  {
    "compound": "CCCCOC(=O)CC(O)(CC(=O)OCCCC)C(=O)OCCCC [TBC, tributylcitrate]",
    "test.readout": "MCC at 24 h",
    "test.result": "≥ 1 mM"
  }
]
